experiment: Part 1 PK study: single oral 200 mg dose, fed (high-fat meal) versus fasted; type: in vivo, human; conditions: female, human, plasma, po, 200 mg, single oral 200 mg, fed (high-fat meal); mean
readoutName: half-life (h)

[
  {
    "smilesInput": "c1cnc(NCc2ccc(CNc3ncccn3)cc2)nc1",
    "readoutName": "half-life",
    "unitsLabel": "h",
    "quantitativeResult": 12.3
  }
]

----------
experiment: Part 2 PK study: 200 mg QD versus 100 mg BID for 10 days under fed conditions; assay type: in vivo, human; details: human, plasma, oral, 100 mg, 100 mg BID, fed, Day 10; median; read-out: Vz/F

[
  {
    "smilesInput": "c1cnc(NCc2ccc(CNc3ncccn3)cc2)nc1",
    "Vd/F [L]": 210
  }
]
